Reported IC50 by item:
TARGET DESC: S. aureus RNase P (RnpA+rnpB) (Staphylococcus aureus, UniProt P0A0H5)
Sequence (P0A0H5 whole entry): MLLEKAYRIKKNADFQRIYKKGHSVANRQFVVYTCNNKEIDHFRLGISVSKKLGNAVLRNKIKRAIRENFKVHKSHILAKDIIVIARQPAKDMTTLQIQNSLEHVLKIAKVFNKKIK
PROTOCOL TEXT: RNase P activity assay (precursor tRNA processing)
Format: biochemical
TEST CONTEXT: ptRNATyr processing, gel densitometry; read-out: RNase P IC50
Protocol: The RNase P inhibitors described herein were tested for activity toward RNase P. S. aureus RNase P activity assays were performed in low salt buffer (50 mM Tris-HCl pH 8.0, 5 mM MgCl2) or in high salt buffer (50 mM Tris-HCl pH 8.0, 100 mM MgCl2, 800 mM NH4Cl). […] The percent RNase P activity was then calculated using the following calculation: (test compound tRNATyr signal/positive control tRNATyr signal)*100.
Expressed in µM, but write only the number.

Example compounds with recorded IC50:
| COMPOUND | IC50 / µM |
| --- | --- |
| CC(C)c1ccc(OCC(=O)NNC(=S)NC(=O)c2nc3ccccc3[nH]2)cc1 | 90 |
| CCC(C)c1ccc(OCC(=O)NNC(=S)NC(=O)C2CCCCC2)cc1 (stereo not drawn) | 125 |

INPUT: Please give the measured IC50 for this compound: CC(C)c1ccc(OCC(=O)NNC(=S)NC(=O)c2cc3cc(Cl)ccc3[nH]2)cc1
OUTPUT: 100

----------
TARGET DESC: S. aureus RNase P (RnpA+rnpB) (Staphylococcus aureus, UniProt P0A0H5)
PROTOCOL TEXT: RNase P activity assay (precursor tRNA processing)
Type: biochemical
TEST CONTEXT: ptRNATyr processing, gel densitometry; read-out: RNase P IC50
Entries and their measured IC50 follow.
Return type: number; implicit unit µM.

The following compounds have reported results that may help.
| COMPOUND | IC50 (µM) |
| --- | --- |
| Cc1ccc(C(=O)NC(=S)NNC(=O)COc2ccc(C(C)C)cc2)o1 [MC-190044] | 105 |
| CC(C)c1ccc(OCC(=O)NNC(=S)NC(=O)c2cc3ccccc3s2)cc1 [MC-220001] | 100 |
| CCCCC(=O)Nc1ccc(C(=O)NNC(=S)NC(=O)c2ccco2)cc1 [ST5526667] | 90 |
| Cc1cccc(C)c1OCC(=O)NNC(=S)NC(=O)c1ccc(-c2ccccc2)cc1 [ST5523335] | 100 |

INPUT: // lookup IC50 for Cc1ccccc1OCC(=O)NNC(=S)NC(=O)/C=C/c1ccco1 [ST5524973]
OUTPUT: 80

----------
Tested on: Staphylococcus aureus strain UAMS-1
PROTOCOL TEXT: Antimicrobial susceptibility testing (MIC, broth microdilution)
Format: cell-based
TEST CONTEXT: Staphylococcus aureus, UAMS1, 18 h, S. aureus UAMS-1, Mueller Hinton broth, 37° C., read-out: MIC
ASSAY READOUT: MIC (µg/mL)
Write the value in µg/mL as a bare number.

Illustrative cases are given below, each with its answer.
| MOLECULE | ASSAY READOUT | UNIT NAME | RESULT NUMBER |
| --- | --- | --- | --- |
| CC(C)c1ccc(OCC(=O)NNC(=S)NC(=O)c2ccc(Br)o2)cc1 | MIC | µg/mL | 32 |
| CC(C)c1ccc(OCC(=O)NNC(=S)NC(=O)c2ccno2)cc1 | MIC | µg/mL | 32 |

INPUT: Would you mind telling me what MIC value was observed for COc1ccc(C(=O)NNC(=S)NC(=O)c2ccco2)cc1 ?
OUTPUT: 16
